# TEST SUMMARY: Mouse pharmacokinetic studies
# Format: in vivo, CD1 mice
# CONDITION INFO: male, CD1, mouse, plasma, iv, 10 mg/kg
READOUT KIND: AUC(0-t) (ng·h/mL)
Numbers only, in ng·h/mL.

May I ask what AUC(0-t) has been recorded for Cc1ccc(C#Cc2cc(-c3nn(-c4nc(C(=O)O)cs4)c(CCC4CC4)c3Cc3ccc(S(N)(=O)=O)c(F)c3)ccc2F)s1 ? 6650

###

# TEST SUMMARY: Mouse pharmacokinetic studies
# Assay type: in vivo, CD1 mice
# CONDITION INFO: male, CD1, mouse, plasma, iv, 10 mg/kg
READOUT KIND: clearance at 24 h (mL/min/kg)
Numbers only, in mL/min/kg.

Some solved cases for reference:
* NS(=O)(=O)c1ccc(Cc2c(-c3ccc(F)c(/C=C/C4CCCC4)c3)nn(-c3nc(C(=O)O)cs3)c2CC2CC2)cc1F | 74.7
* Cc1ncc(C#Cc2cc(-c3nn(-c4nc(C(=O)O)cs4)c(CC4CC4)c3Cc3ccc(S(N)(=O)=O)c(F)c3)ccc2F)s1 | 97
* Cc1ccc(C#Cc2cccc(-c3nn(-c4nc(C(=O)O)cs4)c(CC4CC4)c3Cc3ccc(S(N)(=O)=O)c(F)c3)c2)o1 | 72.3
* Cc1cnc(C#Cc2cc(-c3nn(-c4nc(C(=O)O)cs4)c(CC4CC4)c3Cc3ccc(S(N)(=O)=O)c(F)c3)ccc2F)s1 | 128
* Cc1ccc(C#Cc2cccc(-c3nn(-c4nc(C(=O)O)cs4)c(CCC4CC4)c3Cc3ccc(S(N)(=O)=O)c(F)c3)c2)s1 | 18.6

Items follow; give clearance at 24 h for each.
1. Cc1ccc(C#Cc2cc(-c3nn(-c4nc(C(=O)O)cs4)c(CC4CC4)c3Cc3ccc(S(N)(=O)=O)c(F)c3)ccc2F)o1
2. Cc1ccc(C#Cc2cccc(-c3nn(-c4nc(C(=O)O)cs4)c(CC4CC4)c3Cc3ccc(S(N)(=O)=O)c(F)c3)c2)s1

75
10.4
